# credit: patent US20200368361A1

Exercise: for every item that follows, state its recorded Total Binding at 4° C..
- ASSAY SYSTEM: human MSR1 endogenously expressed on PMA-differentiated THP-1 cells (human) (UniProt P21757)
- Sequence (P21757 whole entry): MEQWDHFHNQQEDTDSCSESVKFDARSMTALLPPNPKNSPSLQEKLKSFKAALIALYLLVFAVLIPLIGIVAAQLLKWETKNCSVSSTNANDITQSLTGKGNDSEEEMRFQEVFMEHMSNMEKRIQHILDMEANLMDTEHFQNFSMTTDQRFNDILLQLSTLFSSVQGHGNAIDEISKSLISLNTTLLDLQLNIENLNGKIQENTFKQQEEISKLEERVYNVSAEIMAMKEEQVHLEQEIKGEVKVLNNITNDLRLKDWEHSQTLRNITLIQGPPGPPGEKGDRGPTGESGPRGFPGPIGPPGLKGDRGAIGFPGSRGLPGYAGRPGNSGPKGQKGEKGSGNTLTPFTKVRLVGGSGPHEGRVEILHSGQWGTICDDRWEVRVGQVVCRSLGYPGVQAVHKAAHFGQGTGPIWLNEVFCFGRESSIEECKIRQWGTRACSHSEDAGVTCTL
- ASSAY TEXT: imaging of PMA-differentiated THP-1 cells, 10 ug/mL antibody, Alexa 488 secondary
Answer with the figure and its unit, nothing else.

Record excerpt, results attached:
- BINDER: "H1H27747P-N297Q (antibody, human IgG1, V domains shown) VH: QVQLVESGGAVVQPGRSLRLSCAASGFTFSYYGMHWVRQAPGKGLEWVAVISYDGSKKYYADSVKGRFTISRDNSKNTLYLQMNSLRAEDTAVYYCAKDLTVDFYYGMDVWGQGTTVTVSS VL: DIQMTQSPSSVSASVGDRVTITCRASQGISSWLAWYQQKPGKAPKLLIYATSSLQSGAPSRFSGSGSGTDFTLTISSLQPEDFATYFCQQANSFPYTFGQGTKLEIKR"
  RESULT: "2.52e+06 RFU"
- BINDER: "H1H27754P-N297Q (antibody, human IgG1, V domains shown) VH: EVQLVESGGGLVQPGGSLRLSCAASGFTFRTYAMTWVRQAPGKGLDWVSAITGDGGNTYYADSVKGRFTISRDNSKNTLYLQMNSLRAEDTAIYYCAKDQRFSFALYYFDYWGQGTLVTVSS VL: DIQMTQSPSSVSASVGDRVTITCRASQGISSWLAWYQQKPGNAPKLLIYAAFSLQSGVPSRFSGSGSGTDFTLTISSLQPEDFATYYCQQANNFPWTFGQGTKVEIKR"
  RESULT: "3.08e+06 RFU"
- BINDER: "H1H21234N-N297Q (antibody, human IgG1, V domains shown) VH: QVQLQESGPGLVKPSETLSLTCTVTGGSISRNYWSWIRQPPGKGLEWIGYIYYSGSIDYNPSLKSRVTISVDTSKNQFSLKLSSMTAADTAVYYCARDRWNWKYGMDVWGQGTTVIVSS VL: EIVLTQSPGTLSLSPGERATLSCRASQTVRNNYLAWYHQKPGQAPRLLIYGASSRATGIPDRFSGSGSGTDFTLTISRLEPEDFTVYYCHQYGNSPWTFGQGTKMEIKR"
  RESULT: "1.95e+06 RFU"

IN: What value of Total Binding at 4° C. has been recorded for this entry: H1H27739P-N297Q (antibody, human IgG1, V domains shown) VH: EVQLVESGGGLVQPGGSLRLSCTASGFTFSSYAMSWVRQAPGKGLEWVSAISGTGSSTYFTDSVKGRFAISRDNSKNTLYLQMNSLRAEDTAVYYCAKDGEWLSTVTLFDYWGQGTLVTVSS VL: EIVMTQSPATLSVSPGERATLSCRASQSVSSNLAWYQQKPGQAPRLLIYGASTRATGIPARFSGSGSGTDFTLTISSLQSEDFALYYCQQYFIWPPHPTFGPGTKVDIKR
OUT: 3.7e+06 RFU
